Give measured IC50 for each item. Keep answers brief.
Test system: HIV-1 subtype C strain MJ4
Test: Single-cycle non-replicating HIV pseudoviral luciferase assay in HEK293T cells
Conditions: Human immunodeficiency virus 1, HEK-293T, read-out: HIV IC50

# lookup: IC50 of C[C@H](Cn1cnc2c(N)ncnc21)OCP(=O)(O)OCCCSCCCCCCCCCCCCc1ccc(F)cc1.N [16g]
8 to 12 nM

# lookup: IC50 of C[C@H](Cn1cnc2c(N)ncnc21)OCP(=O)(O)OCCCSCCCCCCCCCCCCCCC(C)(C)C.N [16e]
177 nM

# lookup: IC50 of C[C@H](Cn1cnc2c(N)ncnc21)OCP(=O)(O)OCCCSCCCCCCCCCCCCC#C[Si](C)(C)C.N [15c]
24 to 28 nM

# lookup: IC50 of C#CCCCCCCCCCCCCCCSCCCOP(=O)(O)CO[C@H](C)Cn1cnc2c(N)ncnc21 [15b]
24 to 28 nM

# lookup: IC50 of C[C@H](Cn1cnc2c(N)ncnc21)OCP(=O)(O)OCCCSCCCCCCCCCCCCC1CCCCC1.N [16h]
8 to 12 nM

# lookup: IC50 of C[C@H](Cn1cnc2c(N)ncnc21)OCP(=O)(O)OCCCSCCCCCCCCCCCCC#CC(C)(C)C.N [15e]
196 nM

---

Give measured Vd at 8 h for each item. Keep answers brief.
Assay: Mouse plasma pharmacokinetics after intravenous dose
Assay type: in vivo, male C57BL/6 mice
Conditions: male, C57BL/6, mouse, iv, i.v. 3 mg/kg
Entry rule: numbers only, all in L/kg.

# lookup: Vd at 8 h of CCCCCCCCCCCCCCCCSCCCOP(=O)(O)CO[C@H](C)Cn1cnc2c(N)ncnc21.N
18.9

# lookup: Vd at 8 h of C[C@H](Cn1cnc2c(N)ncnc21)OCP(=O)(O)OCCCSCCCCCCCCCCCCc1ccc(F)cc1.N [16g]
19.9

# lookup: Vd at 8 h of C[C@H](Cn1cnc2c(N)ncnc21)OCP(=O)(O)OCCCSCCCCCCCCCCCCC1CCCCC1.N [16h]
8.97

---

Assay: Mouse plasma pharmacokinetics after oral dose
Format: in vivo, male C57BL/6 mice
Settings: male, C57BL/6, mouse, plasma, po; p.o. 10 mg/kg, 4 h; read-out: mean prodrug concentration in plasma
Measure Name: concentration at 4 h (ng/mL)
Entry rule: numbers only, all in ng/mL.

# lookup: concentration at 4 h of C[C@H](Cn1cnc2c(N)ncnc21)OCP(=O)(O)OCCCSCCCCCCCCCCCCc1ccc(F)cc1.N [16g]
16

# lookup: concentration at 4 h of CCCCCCCCCCCCCCCCSCCCOP(=O)(O)CO[C@H](C)Cn1cnc2c(N)ncnc21.N
8.34

# lookup: concentration at 4 h of C[C@H](Cn1cnc2c(N)ncnc21)OCP(=O)(O)OCCCSCCCCCCCCCCCCC1CCCCC1.N [16h]
59.2

---

Test: Cellular cytotoxicity (cell viability, CellTiter 96 or resazurin)
Conditions: human, CC50, HEK293T cells, compounds formulated with HSA (5:1)
Give measured CC50 at 48 h for each item. Keep answers brief.

# lookup: CC50 at 48 h of CCCCCCCSCCCCCCCCCCCCOP(=O)(O)CO[C@H](C)Cn1cnc2c(N)ncnc21.N
> 100 µM

# lookup: CC50 at 48 h of CCCCCCCCCCCCSCCCOP(=O)(O)CO[C@H](C)Cn1cnc2c(N)ncnc21.N
> 100 µM

# lookup: CC50 at 48 h of C[C@H](Cn1cnc2c(N)ncnc21)OCP(=O)(O)OCCCSCCCCCCCCCCCCC#C[Si](C)(C)C.N [15c]
> 100 µM

# lookup: CC50 at 48 h of C[C@H](Cn1cnc2c(N)ncnc21)OCP(=O)(O)OCCCSCCCCCCCCCCCCC1CCCCC1.N [16h]
48 µM

# lookup: CC50 at 48 h of CCCCCCCCCCCCCCCCCSCCOP(=O)(O)CO[C@H](C)Cn1cnc2c(N)ncnc21.N
29 µM

# lookup: CC50 at 48 h of C[C@H](Cn1cnc2c(N)ncnc21)OCP(=O)(O)OCCCSCCCCCCCCCCC#Cc1ccccc1.N [15f]
> 100 µM

# lookup: CC50 at 48 h of CCCCSCCCCCCCCCCCCCCCOP(=O)(O)CO[C@H](C)Cn1cnc2c(N)ncnc21.N
> 100 µM
